# Tested on: TO-N3-2 (biotin conjugate)
# PROCEDURE_TEXT: pull-down binding Z-score (relative to library population); higher = stronger binding
# ASSAY_CONDITIONS: RNA library: Library-2
Binary call on pull-down binding Z-score: Criterion met from 0.3 upward, Criterion not met beneath that.

| PRIMARY_SEQUENCE | ASSAY_SYSTEM | QUALITATIVE_LABEL |
| --- | --- | --- |
| CAGAGUCACAUGUUGACACUG | TO-N3-2 (biotin conjugate) | Criterion not met |
| GCGCUGCCAGAAACUGGCUAAGCGC [bulge-UA] | TO-N3-2 (biotin conjugate) | Criterion not met |
| GAGUUUGGGAUUUGAAAAAACC [hsa-mir-181a-2] | TO-N3-2 (biotin conjugate) | Criterion met |
| GGAUGUCAAUCC [IAV_invivo_PB1_2_Motif_2+IAV_invivo_PB1_2_Motif_2] | TO-N3-2 (biotin conjugate) | Criterion not met |
| GCCUGCGGGCAGGAAGCGGA [hsa-mir-3928] | TO-N3-2 (biotin conjugate) | Criterion met |
| CUCGUCUAUCUUCUGCAGGCUGCUUACGGUUUCGUCCGUGUUGCAGCCGAUCAUCAGCACAUCUAGGUUUCGUCCGGGUGUGACCGAAAGGUAAGAUGGAGAG | TO-N3-2 (biotin conjugate) | Criterion met |
| GGUUCAAGUUUGGCUCCAUCUUUAUGAAA [hsa-mir-4506] | TO-N3-2 (biotin conjugate) | Criterion met |
| CAUAUGUAUGUAUGUAUGUCUGUUACACAUAUG [hsa-mir-3688-1] | TO-N3-2 (biotin conjugate) | Criterion not met |
| GGCCUUGAAGCC [SHAPE_invitro_SARS-CoV-2_Motif_466] | TO-N3-2 (biotin conjugate) | Criterion not met |
| GGGCUCGUGAUGGCUGGUGGGCCC [hsa-mir-345] | TO-N3-2 (biotin conjugate) | Criterion met |
| GUCAGUGAAACACAGGGAACAGAGAAACUGAC [IAV_invivo_PB2_1_Motif_24+IAV_invivo_PB2_1_Motif_24] | TO-N3-2 (biotin conjugate) | Criterion met |
| CGUUCGCUUUAUUUAUGGCGCACA [hsa-mir-323a] | TO-N3-2 (biotin conjugate) | Criterion not met |
| CUGUGAUAACAACUCAG [hsa-mir-4705] | TO-N3-2 (biotin conjugate) | Criterion not met |
| CGGGAACCUGCCUCCCG [hsa-mir-596] | TO-N3-2 (biotin conjugate) | Criterion not met |
| GGAGGCCCCGCUCUGCUGCCGACCCUGUGGAGCGGAGGGUGAAGCCUCC [hsa-mir-3180-4] | TO-N3-2 (biotin conjugate) | Criterion met |
| GACCGUUGGCAUCUUAAUUACCCUC [hsa-mir-532] | TO-N3-2 (biotin conjugate) | Criterion met |
| GCAUCCUUGGAAUCUGCACUCAAGGGAUGC [hsa-mir-5089] | TO-N3-2 (biotin conjugate) | Criterion not met |
| UGAAUAUGUAAUAUAAGUGUAUUG [hsa-mir-450b] | TO-N3-2 (biotin conjugate) | Criterion not met |
| AUACCACUUAUGUACAAAGGACUUCCUUGGAAUGUAGUGCGUAU | TO-N3-2 (biotin conjugate) | Criterion met |
| CAUUUGUAGUUUCAACUGGAUACCACUUCAGAGAGCUAGGUGUUGUACAUAAUCAGGAUGUAAACUUACAUAGCUCUAGACUUAGUUUUAAGGAAUUACUUGUG | TO-N3-2 (biotin conjugate) | Criterion not met |
| UGGUUUUGCUAAAUUCCUAAAAACUA [DMSMaPseq_invitro_SARS-CoV-2_Motif_244] | TO-N3-2 (biotin conjugate) | Criterion not met |
| GCAAUCAGGACUGGGUCAUUC [hsa-mir-6873] | TO-N3-2 (biotin conjugate) | Criterion not met |
| UAGAGUGCUAUCUA [SHAPE_invitro_SARS-CoV-2_Motif_352] | TO-N3-2 (biotin conjugate) | Criterion not met |
| GGGCAGGGAGUCAGAGGGGACCGCCC [hsa-mir-4740] | TO-N3-2 (biotin conjugate) | Criterion met |
| UCCUCCAUGCUUGGAAAAUGCAGGGAGGA [hsa-mir-764] | TO-N3-2 (biotin conjugate) | Criterion not met |
| ACUAAAAAUGU [SHAPE_invitro_SARS-CoV-2_Motif_381] | TO-N3-2 (biotin conjugate) | Criterion not met |
| UGCUGUGAGCUAGCCAGCAG [hsa-mir-5693] | TO-N3-2 (biotin conjugate) | Criterion met |
| CCCAUAUGGAUUACUUUGCUAUGGA [hsa-mir-206] | TO-N3-2 (biotin conjugate) | Criterion not met |
| AAAAACACCCAAGAAGUUUUU | TO-N3-2 (biotin conjugate) | Criterion not met |
| AGGCUGUCUUCAUUCCCUCUUGACCACCC [hsa-mir-6795] | TO-N3-2 (biotin conjugate) | Criterion met |
| UCAGCUGUAAUACAUGGAUUGGCUGG [hsa-mir-30b] | TO-N3-2 (biotin conjugate) | Criterion not met |
| UACCAGCUGUACUCAACUCAAUUGAGUACAGACACUGGUG [DMSMaPseq_invitro_SARS-CoV-2_Motif_468] | TO-N3-2 (biotin conjugate) | Criterion not met |
| UGCUAACUAAGGGCA | TO-N3-2 (biotin conjugate) | Criterion not met |
| CUUCACUGGUGCAGUAAGAAG [hsa-mir-7853] | TO-N3-2 (biotin conjugate) | Criterion not met |
| UUCGCAUUAUUUAAUGAUGCCCA [hsa-mir-323b] | TO-N3-2 (biotin conjugate) | Criterion not met |
| GUCUGCCAAGGUUUUGGCAGAC [hsa-mir-3913-2] | TO-N3-2 (biotin conjugate) | Criterion not met |
| GUCAGGUGAUGGUGAUAAGGUCAAGGCCUG [hsa-mir-6853] | TO-N3-2 (biotin conjugate) | Criterion met |
| UAGAAUAGACGGUGACAUGGUACCACAUAUAUCACGUCAACGUCUUACUA [SHAPE_invivo_SARS-CoV-2_Motif_261] | TO-N3-2 (biotin conjugate) | Criterion not met |
| GCUAUGGGUAUUAUUGCUAUGUCUGCUUUUGCAAUGAUGUUUGUCAAACAUAAGCAUGCAUUUCUCUGUUUGUUUUUGUUACCUUCUCUUGCCACUGUAGC | TO-N3-2 (biotin conjugate) | Criterion not met |
| GUCUCUGAAGAAGUAGUGGAAAAUCCUACCAUACAGAAAGAC | TO-N3-2 (biotin conjugate) | Criterion met |
| GUCUGGUAGUCGGAC [IAV_invivo_NA_6_Motif_1+IAV_invivo_NA_6_Motif_1] | TO-N3-2 (biotin conjugate) | Criterion not met |
